Provenance of the data: patent US6828315B1

Molecular target: type 4 phosphodiesterases (PDE4)
Assay: Inhibition of the phosphodiesterase (PDE4), enzymatic preparation from line U937
Details: PDE4 from cytosolic preparation of human cell line U937
measured-quantity: IC50 (nM)
Hi! Could you send only the number? It should be in nM, unit omitted.

Below, each entry is followed by its recorded IC50 result.
Cc1ccc2c(c1)c(=O)n(Cc1ccccc1)c1nnc(N3CCCCCC3)n21    190
Cc1ccc2c(c1)c(=O)n(C/C=C/c1ccccc1)c1nnc(N(C)C)n21    39
CN(C)c1nnc2n(Cc3ccc(O)cc3)c(=O)c3cc(Br)ccc3n12    73
Nc1ccc2c(c1)c(=O)n(C/C=C/c1cccnc1)c1nnc(N3CCCC3)n21    28
CN(C)c1nnc2n(Cc3ccc(C#N)cc3)c(=O)c3cc(Br)ccc3n12    140

**Q:** Return reported IC50; argument: Cc1ccc2c(c1)c(=O)n(CC=Cc1ccccc1)c1nnc(N3CCCCCC3)n21
**A:** 30

**Q:** For COc1ccc(Cn2c(=O)c3cc(Cl)ccc3n3c(N4CCCCCC4)nnc23)cc1OC then?
**A:** 40

**Q:** For Nc1ccc(Cn2c(=O)c3cc(Br)ccc3n3c(N4CCCC4)nnc23)cc1 then?
**A:** 48
